- TARGET_DESC: PDK1 (Homo sapiens (Human), UniProt O15530)
- Sequence (O15530 51-359): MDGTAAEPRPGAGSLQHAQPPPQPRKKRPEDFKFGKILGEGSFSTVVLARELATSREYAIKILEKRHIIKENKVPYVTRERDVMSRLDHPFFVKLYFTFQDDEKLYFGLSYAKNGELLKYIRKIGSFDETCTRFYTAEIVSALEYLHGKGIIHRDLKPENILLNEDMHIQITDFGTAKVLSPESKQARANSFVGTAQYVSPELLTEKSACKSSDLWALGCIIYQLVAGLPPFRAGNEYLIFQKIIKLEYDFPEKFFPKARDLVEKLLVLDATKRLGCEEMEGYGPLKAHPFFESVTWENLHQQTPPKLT
- ASSAY_DETAILS: PDK1 kinase assay (coupled PDK1/AKT/FAM-crosstide assay, IMAP fluorescence polarization)
- Assay type: biochemical
- CONDITION_DESCRIPTION: inhibition of phospo-PDK1 in vitro
pIC50: −log10 of the molar value. Counter-ions that a name gives are not always drawn.
REPORTED_PROPERTY: pIC50

Please review the following examples before continuing.
{"COMPOUND": "C[C@@H](NC(=O)c1cccnc1NCc1ccc(-c2ccc3ncnc(N)c3c2)s1)c1cccc(F)c1 [Example 3.20, (TFA salt)]", "pIC50": "< 5.30"}
{"COMPOUND": "C[C@H](NC(=O)c1cc(S(C)(=O)=O)cnc1NCc1ccc(-c2ccc3ncnc(N)c3c2)s1)c1ccc(F)c(F)c1", "pIC50": "6.00 to 7.00"}
{"COMPOUND": "CC(C)Nc1ncnc2ccc(-c3ccc(CNc4ncccc4C(=O)NCc4ccc(F)c(F)c4)s3)cc12 [Example 4.12]", "pIC50": "> 7.00"}
{"COMPOUND": "CN(C)CCCNS(=O)(=O)c1cnc(NCc2ccc(-c3ccc4ncnc(N)c4c3)s2)c(C(=O)NCc2ccc(F)c(F)c2)c1 [Example 8.6.14]", "pIC50": "> 7.00"}

For C[C@H](NC(=O)c1cccnc1NCc1ccc(-c2ccc3ncc(N(C)C)nc3c2)s1)c1ccc(F)c(F)c1 [Example 4.27] , what is its reported pIC50?
5.30 to 6.00

What do you get for COc1ccc([C@H](COc2ccc([N+](=O)[O-])c(N)c2)Nc2ncccc2C(=O)N[C@@H](C)c2ccc(F)c(F)c2)cc1 [Example 16.5] ?
< 5.30

What do you get for Cn1cc(-c2ccc(CNc3ncc(C#N)nc3C(=O)NCc3cncc(F)c3)cc2)c2c(N)ncnc21 [Example 28] ?
> 7.00

What do you get for Cc1[nH]c(/C=C2\C(=O)Nc3cc(/C=C/CNc4ncccc4C(=O)NCc4ccc(F)c(F)c4)ccc32)c(C)c1C(=O)N1CCOCC1 [Example 15.18] ?
> 7.00

What do you get for O=C(NCc1ccc(F)c(F)c1)c1cccnc1NCc1cccc(-c2c[nH]c3ncccc23)c1 [Example 1.5] ?
> 7.00

What do you get for CC(NC(=O)c1cccnc1NCc1ccc(-c2ccc3ncnc(N)c3c2)s1)c1ccc(F)c(F)c1 (centres unmarked) [Example 3.19, (TFA salt)] ?
6.00 to 7.00

What do you get for COc1cc(NC(=O)c2cccnc2NCc2ccc(-c3ccc4ncnc(N)c4c3)s2)cc(C(F)(F)F)c1 [Example 3.52, (TFA salt)] ?
< 5.30

What do you get for C[C@H](NC(=O)c1cc(C(F)(F)F)cnc1NCc1ccc(-c2ccc3ncc4ncn(C)c4c3c2)s1)c1ccc(F)c(F)c1 [Example 2.27] ?
> 7.00

What do you get for N#Cc1cnc(N[C@@H](COc2ccc3[nH]c(=O)[nH]c3c2)c2ccccc2)c(C(=O)NCc2ccc(F)c(F)c2)n1 [Example 16.11] ?
> 7.00

What do you get for CNc1ncnc2ccc(-c3ccc(CNc4ncccc4C(=O)NCc4ccc(F)c(F)c4)s3)cc12 [Example 4.24] ?
> 7.00

====

The following compounds are shown together with reported pIC50 values.
- TARGET_DESC: PDK1 (Homo sapiens (Human))
- ASSAY_DETAILS: PDK1 kinase assay (coupled PDK1/AKT/FAM-crosstide assay, IMAP fluorescence polarization)
- Format: biochemical
- CONDITION_DESCRIPTION: inhibition of phospo-PDK1 in vitro
pIC50: −log10 of the molar value. Counter-ions that a name gives are not always drawn.

Please review the following examples before continuing.
{"COMPOUND": "C[C@H](NC(=O)c1cccnc1NCc1ccc(-c2ccc3ncc4ncn(C)c4c3c2)s1)c1ccc(F)cc1", "pIC50": "6.00 to 7.00"}
{"COMPOUND": "C[C@H](NC(=O)c1cc(I)cnc1NCc1ccc(-c2ccc3ncnc(N)c3c2)s1)c1ccc(F)c(F)c1", "pIC50": "6.00 to 7.00"}
{"COMPOUND": "Nc1ncnc2ccc(-c3csc(CNc4ncccc4C(=O)NCc4ccc(F)c(F)c4)n3)cc12", "pIC50": "> 7.00"}
{"COMPOUND": "O=C(NCc1ccc(F)c(F)c1)c1cccnc1NCc1cnc(-c2c[nH]c3ncccc23)s1", "pIC50": "6.00 to 7.00"}
{"COMPOUND": "C[C@H](NC(=O)c1nc(C#N)cnc1NCc1ccc(-c2cn(C)c3ncnc(N)c23)cc1)c1ccc(F)c(F)c1", "pIC50": "> 7.00"}
{"COMPOUND": "O=C1Nc2cc(OCCNc3ncccc3C(=O)NCc3ccc(F)cc3)ccc2/C1=C/c1cnc[nH]1", "pIC50": "> 7.00"}

For "C[C@H](NC(=O)c1cccnc1NCc1ccc(-c2cc3c(N)ncnc3cn2)s1)c1ccc(F)c(F)c1" , what is its reported pIC50?
6.00 to 7.00

What do you get for Nc1ncnc2ccc(-c3ccc(CNc4nccnc4C(=O)NCc4ccc(F)cc4F)s3)cc12 [Example 3.75, (TFA salt)] ?
> 7.00

What do you get for "C[C@H](NC(=O)c1cc(S(N)(=O)=O)cnc1NCc1ccc(-c2ccc3ncnc(N)c3c2)s1)c1ccc(F)c(F)c1" ?
> 7.00

What do you get for Nc1ncnc2ccc(-c3ccc(CNc4ncccc4C(=O)N4CCc5ccccc5C4)s3)cc12 [Example 3.34, (TFA salt)] ?
< 5.30

What do you get for "O=C(NC1CC1)c1cccnc1NCc1cccc(-c2c[nH]c3ncccc23)c1" ?
< 5.30

What do you get for "C[C@@H](c1ccc(F)c(F)c1)n1cnc2c(C#N)cnc(NCc3ccc(-c4ccc5ncnc(N)c5c4)s3)c2c1=O" ?
> 7.00

What do you get for "Nc1ncnc2ccc(-c3ccc(CNc4nc(C(F)(F)F)ccc4C(=O)NCc4ccc(F)c(F)c4)s3)cc12" ?
> 7.00

What do you get for Nc1ncnc2ccc(-c3ccc(CNc4ncccc4C(=O)Nc4cccc(C(F)(F)F)c4)s3)cc12 [Example 3.53, (TFA salt)] ?
< 5.30

What do you get for "CC(C)Oc1cc(CNc2ncccc2C(=O)NCc2cccc(F)c2)cc(-c2c[nH]c3ncc(C(=O)NC4CC4)cc23)c1" ?
> 7.00
